# subject.of.test: rNHE3 (Rattus norvegicus, UniProt P26433)
# Sequence (P26433 29-831): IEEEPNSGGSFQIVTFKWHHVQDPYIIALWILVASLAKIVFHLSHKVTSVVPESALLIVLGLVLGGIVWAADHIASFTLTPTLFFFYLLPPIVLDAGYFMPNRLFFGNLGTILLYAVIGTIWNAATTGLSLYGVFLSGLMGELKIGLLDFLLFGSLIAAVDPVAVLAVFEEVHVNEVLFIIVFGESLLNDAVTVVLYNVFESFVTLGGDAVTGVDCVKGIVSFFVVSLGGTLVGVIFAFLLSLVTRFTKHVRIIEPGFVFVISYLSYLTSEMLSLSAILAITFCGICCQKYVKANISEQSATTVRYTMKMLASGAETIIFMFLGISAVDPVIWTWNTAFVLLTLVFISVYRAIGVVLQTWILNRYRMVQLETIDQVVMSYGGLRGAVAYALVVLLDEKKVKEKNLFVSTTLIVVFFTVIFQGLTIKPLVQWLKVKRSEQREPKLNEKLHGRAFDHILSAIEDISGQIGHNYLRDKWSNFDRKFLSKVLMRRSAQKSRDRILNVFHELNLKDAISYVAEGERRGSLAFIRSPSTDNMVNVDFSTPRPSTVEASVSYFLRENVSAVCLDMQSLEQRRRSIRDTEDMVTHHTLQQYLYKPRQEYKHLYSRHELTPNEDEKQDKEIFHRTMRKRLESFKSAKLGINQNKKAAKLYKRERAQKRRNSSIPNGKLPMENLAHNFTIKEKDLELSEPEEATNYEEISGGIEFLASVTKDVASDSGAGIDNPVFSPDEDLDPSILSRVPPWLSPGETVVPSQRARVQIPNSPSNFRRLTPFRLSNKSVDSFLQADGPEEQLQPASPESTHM
# experimental.details: recovery of the intracellular pH (pHi) after acidification, BCECF fluorescence, NHE inhibition
# Format: cell-based
# condition.label: pH recovery recorded for three minutes in the case of NHE3; bicarbonate-free conditions
# Experimental: In this test, the recovery of the intracellular pH (pHi) after an acidification was determined which commences with functional NHE even under bicarbonate-free conditions. For this, the pHi was determined using the pH-sensitive fluorescent dye BCECF (Calbiochem, the precursor BCECF-AM was employed). […] The subsequent rate of pH recovery was recorded for two minutes in the case of NHE1, for five minutes in the case of NHE2, and for three minutes in the case of NHE3. […]
Structures can show the parent of a compound that is named as a salt.
measure: IC50 (µM)
Please give a number only; it is taken to be in µM.

In: Return reported IC50. Input compound: Clc1ccccc1Nc1nc2ccccc2[nH]1 [Example 16, trifluoroacetate]
Out: 0.63

In: Return reported IC50. Input compound: Brc1ccccc1Nc1nc2ccccc2[nH]1 [Example 18, trifluoroacetate]
Out: 1.2

In: Return reported IC50. Input compound: FC(F)(F)c1cccc(Cl)c1Nc1nc2ccccc2[nH]1 [Example 11, hydrochloride]
Out: 0.83

In: Return reported IC50. Input compound: Cl.Oc1cccc2[nH]c(Nc3c(Cl)cccc3Cl)nc12 [Example 2, Hydrochloride]
Out: 0.47

In: Return reported IC50. Input compound: Cl.Fc1ccc2nc(Nc3c(Cl)cccc3Cl)[nH]c2c1F [Example 12, hydrochloride]
Out: 2.9

In: Return reported IC50. Input compound: Cc1ccccc1Nc1nc2ccccc2[nH]1 [Example 19, hydrochloride]
Out: 3.5

In: Return reported IC50. Input compound: Fc1ccc2[nH]c(Nc3c(Cl)cccc3Cl)nc2c1 [Example 9, hydrochloride]
Out: 1

Where these numbers come from: patent US6958357B2
